- target_of_assay: HiBit-BRG1 fusion protein (Homo sapiens, UniProt P51532)
- Construct: expressed in transfected cells
- Sequence (P51532 whole entry, the tested form may be a part): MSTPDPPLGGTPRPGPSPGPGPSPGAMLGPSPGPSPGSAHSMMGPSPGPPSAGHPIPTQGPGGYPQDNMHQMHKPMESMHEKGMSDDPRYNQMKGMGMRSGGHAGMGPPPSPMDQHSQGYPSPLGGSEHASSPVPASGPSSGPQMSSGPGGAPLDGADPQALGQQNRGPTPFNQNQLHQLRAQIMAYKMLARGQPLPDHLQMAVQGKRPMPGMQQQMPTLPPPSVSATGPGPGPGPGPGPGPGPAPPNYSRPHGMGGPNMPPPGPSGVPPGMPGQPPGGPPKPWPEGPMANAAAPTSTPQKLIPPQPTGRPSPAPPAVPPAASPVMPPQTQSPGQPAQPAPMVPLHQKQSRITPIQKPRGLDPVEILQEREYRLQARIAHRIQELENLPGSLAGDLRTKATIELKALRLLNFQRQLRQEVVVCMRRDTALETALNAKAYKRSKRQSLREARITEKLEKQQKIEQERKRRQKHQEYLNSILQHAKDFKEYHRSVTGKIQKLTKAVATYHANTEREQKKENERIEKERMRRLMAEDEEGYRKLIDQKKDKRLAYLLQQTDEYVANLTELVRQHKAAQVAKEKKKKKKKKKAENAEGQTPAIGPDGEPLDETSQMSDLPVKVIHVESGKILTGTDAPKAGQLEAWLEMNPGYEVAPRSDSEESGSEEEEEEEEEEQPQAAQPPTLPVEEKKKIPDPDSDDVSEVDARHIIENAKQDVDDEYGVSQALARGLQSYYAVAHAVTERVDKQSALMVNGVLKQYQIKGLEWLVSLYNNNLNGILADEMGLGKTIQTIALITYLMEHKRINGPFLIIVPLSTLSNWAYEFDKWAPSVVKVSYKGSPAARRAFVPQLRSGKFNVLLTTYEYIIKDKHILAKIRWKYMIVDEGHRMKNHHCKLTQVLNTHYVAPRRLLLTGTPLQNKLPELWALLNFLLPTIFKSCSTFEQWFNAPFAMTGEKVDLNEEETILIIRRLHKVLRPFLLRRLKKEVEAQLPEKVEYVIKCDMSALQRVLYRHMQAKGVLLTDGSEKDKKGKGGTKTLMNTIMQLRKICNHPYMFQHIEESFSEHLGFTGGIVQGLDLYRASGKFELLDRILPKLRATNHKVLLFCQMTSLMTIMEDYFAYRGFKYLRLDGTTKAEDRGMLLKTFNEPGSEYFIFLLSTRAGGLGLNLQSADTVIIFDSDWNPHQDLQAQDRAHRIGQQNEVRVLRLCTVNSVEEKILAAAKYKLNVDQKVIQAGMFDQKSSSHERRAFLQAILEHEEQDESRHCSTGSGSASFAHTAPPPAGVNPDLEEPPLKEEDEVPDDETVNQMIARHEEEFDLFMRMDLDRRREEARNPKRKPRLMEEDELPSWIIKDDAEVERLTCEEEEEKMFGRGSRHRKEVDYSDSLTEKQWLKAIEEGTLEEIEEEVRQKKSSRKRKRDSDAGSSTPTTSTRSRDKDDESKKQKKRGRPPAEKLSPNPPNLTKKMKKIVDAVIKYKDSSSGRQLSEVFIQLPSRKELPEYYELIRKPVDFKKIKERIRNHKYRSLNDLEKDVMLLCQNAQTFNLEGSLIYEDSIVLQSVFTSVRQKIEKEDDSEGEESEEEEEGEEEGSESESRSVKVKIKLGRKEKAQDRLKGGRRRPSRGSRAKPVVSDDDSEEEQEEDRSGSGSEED
- experiment_summary: HiBiT-BRG1 cell-based degradation assay (Nano-Glo HiBiT Lytic Detection, 24 h)
- condition_summary: stable HeLa cell line expressing HiBit-BRG1 and LgBit, read-out: BRMG1 HiBit Degradation IC50
Quick reference: DC50 of the listed items.
parameter_measured: DC50

[[record]]
smiles_representation = "Cc1ncsc1-c1ccc([C@H](C)NC(=O)[C@@H]2C[C@@H](O)CN2C(=O)[C@@H](c2cc(N3CC[C@@H](c4sc5nnc(-c6ccccc6O)cc5c4C)C3)no2)C(C)C)cc1"
observed_value = "> 0.01 µM"

[[record]]
smiles_representation = "Cc1ncsc1-c1ccc([C@H](C)NC(=O)[C@@H]2C[C@@H](O)CN2C(=O)[C@@H](c2cc(-c3cnc(N4CCC5(CC4)CC(c4sc6nnc(-c7ccccc7O)cc6c4C)C5)nc3)no2)C(C)C)cc1"
observed_value = "> 1 µM"

[[record]]
smiles_representation = "Cc1ncsc1-c1ccc([C@H](C)NC(=O)[C@@H]2C[C@@H](O)CN2C(=O)[C@@H](c2cc(-c3ccc(N4CC(c5sc6nnc(-c7ccccc7O)cc6c5C)C4)nn3)no2)C(C)C)cc1"
observed_value = "> 1 µM"


Sourced from patent US20250304596A1
